Test: in vivo
Settings: rat, po
Experimental Readout: bioavailability

Item: COC(=O)C1=C[C@H](N=C(N)N)C(NC(C)=O)[C@H]([C@H](OC(=O)NCCCNC(=O)c2ccc(C(=O)NCCCNC(=O)O[C@H](C(O)CO)[C@@H]3OC(C(=O)O)=C[C@H](N=C(N)N)C3NC(C)=O)cc2)C(O)CO)O1 (stereo partly specified) | bioavailability: < 1%

====

Assay: in vivo
Settings: rat, po
Experimental Readout: bioavailability (%)
One number for each entry, in %.

Entry [H]/N=C(\N)N[C@H]1C=C(C(=O)O)O[C@@H]([C@H](O)[C@H](O)CO)C1NC(C)=O (some centres not stated) — recorded bioavailability = 2.7

====

Experiment: Plasma half life in rat after 0.4 mg/kg intratracheal dosage
Format: ADME, organism-based
Design: dose 0.4 mg/kg, route endotracheal
Conditions: inhaled or intranasal
So I've got a bunch of compounds here, and I need their half-life values.
One number for each entry, in h.

CC(=O)NC1[C@@H](N=C(N)N)C=C(C(=O)O)O[C@H]1[C@H](OC(=O)NCCCCCCCCCCCCNC(=O)O[C@H](C(O)CO)[C@@H]1OC(C(=O)O)=C[C@H](NC(=N)N)C1NC(C)=O)C(O)CO (some centres not stated) = 5

Item: COC(=O)C1=C[C@H](N=C(N)N)C(NC(C)=O)[C@H]([C@H](OC(=O)NCCCNC(=O)c2ccc(C(=O)NCCCNC(=O)O[C@H](C(O)CO)[C@@H]3OC(C(=O)O)=C[C@H](N=C(N)N)C3NC(C)=O)cc2)C(O)CO)O1 (some centres not stated) | half-life: 2

====

Molecular target: Neuraminidase (Influenza A virus (A/Puerto Rico/8/1934(H1N1)), UniProt P03468)
Sequence (P03468 whole entry): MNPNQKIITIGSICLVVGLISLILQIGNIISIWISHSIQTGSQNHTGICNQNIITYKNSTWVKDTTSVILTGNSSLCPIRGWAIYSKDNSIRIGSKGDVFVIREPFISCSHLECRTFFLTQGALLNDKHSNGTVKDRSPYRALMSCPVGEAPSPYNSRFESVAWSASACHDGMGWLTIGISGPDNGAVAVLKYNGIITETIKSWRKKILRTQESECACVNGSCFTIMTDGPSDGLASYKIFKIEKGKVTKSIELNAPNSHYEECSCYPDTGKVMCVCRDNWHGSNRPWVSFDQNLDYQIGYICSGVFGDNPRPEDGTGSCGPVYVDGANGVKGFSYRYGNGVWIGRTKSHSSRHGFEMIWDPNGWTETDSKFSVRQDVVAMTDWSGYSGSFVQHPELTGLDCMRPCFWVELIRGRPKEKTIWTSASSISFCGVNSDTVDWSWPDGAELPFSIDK
Experimental Readout: IC50 (nM)
Numbers only, in nM.

Memo: CC(=O)NC1[C@@H](N=C(N)N)C=C(C(=O)O)O[C@H]1[C@H](OC(=O)NCCCCCCCCCCCCNC(=O)O[C@H](C(O)CO)[C@@H]1OC(C(=O)O)=C[C@H](NC(=N)N)C1NC(C)=O)C(O)CO (stereo partly specified) , reported IC50: 61

====

Assay: in vivo
Settings: rat
Experimental Readout: Vd (L/kg)
Answers are plain numbers, in L/kg.

Use the examples below as a reference point.
COC(=O)C1=C[C@H](N=C(N)N)C(NC(C)=O)[C@H]([C@H](OC(=O)NCCCNC(=O)c2ccc(C(=O)NCCCNC(=O)O[C@H](C(O)CO)[C@@H]3OC(C(=O)O)=C[C@H](N=C(N)N)C3NC(C)=O)cc2)C(O)CO)O1 (stereo partly drawn) = 0.2
[H]/N=C(\N)N[C@H]1C=C(C(=O)O)O[C@@H]([C@H](O)[C@H](O)CO)C1NC(C)=O (stereo partly drawn) = 0.03

// below: Vd requested for another molecule
Note to self: Vd recorded for CC(=O)NC1[C@@H](N=C(N)N)C=C(C(=O)O)O[C@H]1[C@H](OC(=O)NCCCCCCCCCCCCNC(=O)O[C@H](C(O)CO)[C@@H]1OC(C(=O)O)=C[C@H](NC(=N)N)C1NC(C)=O)C(O)CO (stereo partly drawn) was 0.2

====

Consider the following compounds; for each one, report its half-life.
Assay: Plasma half life in rat after 10 mg/kg oral dosage
Type: ADME, organism-based
Design: dose 10 mg/kg, route oral
Give bare numbers, in h.

CC(=O)NC1[C@@H](N=C(N)N)C=C(C(=O)O)O[C@H]1[C@H](OC(=O)NCCCCCCCCCCCCNC(=O)O[C@H](C(O)CO)[C@@H]1OC(C(=O)O)=C[C@H](NC(=N)N)C1NC(C)=O)C(O)CO (some centres not stated) = 4.9

Proceed to the following item.
half-life reported for this compound [H]/N=C(\N)N[C@H]1C=C(C(=O)O)O[C@@H]([C@H](O)[C@H](O)CO)C1NC(C)=O (some centres not stated) : 0.25
